System: NCI/ADR-RES ovarian
testProtocol: NCI-60 one-dose screen, 48 h
conditionParameters: 10 µM unless noted
The panel holds about 83,000 compounds, 20% with a hit somewhere; the sample as a whole holds those more often. The source made the active and inactive calls. The calls were made as follows: active = growth percent below 10; inactive = the rest.
// allowed return values: active, inactive

Tell me the assay call for CC1(C)[C@@H](O)CC[C@]2(C)[C@H]3CC[C@@H]4[C@H]5[C@H](C(=O)/C=C\c6ccc([N+](=O)[O-])cc6)CC[C@]5(O)CC[C@@]4(C)[C@]3(C)CC[C@@H]12 please. inactive

Please give the result for NS(=O)(=O)c1ccc(Nc2nc(N/N=C/CCc3ccccc3)nc(Nc3ccccc3)n2)cc1 too. inactive

Please give the result for CC/C(=C/c1c(O)cccc1OC)c1ccc2c(OC)cccc2[o+]1 too. inactive

Please give the result for CCc1ccc(SC2c3ccc(N(CC)CC)cc3Oc3nc(N)c(C#N)c(N)c32)cc1 (stereo unspecified) too. active

Please give the result for CC(=O)Nc1cccc(Nc2nc(N[C@H](C)c3ccccc3)c3ccccc3n2)c1 too. inactive

Please give the result for CN1c2ccccc2Sc2cc(C=C(C#N)C#N)ccc21 too. inactive

Please give the result for CNC(=O)c1cc(N2CCc3cc(NC(=O)Nc4ccc(Cl)c(C(F)(F)F)c4)ccc32)ccn1 too. inactive

Please give the result for CNC(=O)c1cc(Oc2ccc3nc(NC(=O)c4cc(N5CCOCC5)cc(C(F)(F)F)c4)sc3c2)ccn1 too. inactive

Please give the result for O=C(c1ccc(O)c(C(=O)N2Cc3ccc(OCCC[P+](c4ccccc4)(c4ccccc4)c4ccccc4)cc3C2)c1)N1Cc2cccc(F)c2C1 too. inactive

Please give the result for CCOC(=O)c1c(Nc2ccccc2)nn2c(-c3ccccc3)ccnc12 too. inactive

Please give the result for NS(=O)(=O)c1ccc(-n2cc(CN3CCCCC3)nn2)cc1 too. inactive

Please give the result for Cc1cccc2c3c(sc12)C(c1ccc(F)cc1)C(C#N)=C(/N=C/c1ccc(Cl)cc1)O3 (stereo unspecified) too. active

Please give the result for Cc1ccc(S(=O)(=O)NCCNc2nc(Nc3ccc(N4CCN(C)CC4)cc3)nc3ccsc23)cc1 too. inactive

Please give the result for Cc1c(F)cc(C(N)=O)cc1NCC(=O)Nc1ccc([N+](=O)[O-])cc1 too. inactive

Please give the result for CS(=O)(=O)Nc1cc(-c2ccc3ncc(C#N)c(NCc4ccccc4O)c3c2)cnc1Cl too. inactive

Please give the result for CCCCCc1ccc(S(=O)(=O)Nc2cc(-c3csc(NC(=O)CN4CCN(CCO)CC4)n3)ccc2OC)cc1 too. inactive

Please give the result for C=CCn1c(SCC(=O)Nc2ccc(C(=O)/C=C/c3ccc(C)cc3)cc2)nnc1-c1c[nH]c2ccccc12 too. inactive

Please give the result for CCn1c2ccccc2c2cc(-n3nncc3-c3ccccc3)ccc21 too. active

Please give the result for C#CCNC1CCC(c2csc(C#C)n2)=C1C (stereo unspecified) too. inactive

Please give the result for Nc1nc(N)c2c(n1)NC(c1ccc(C(F)(F)F)cc1)CC(c1ccc(Nc3nc(NCCO)nc(N4CCOCC4)n3)cc1)=N2 (stereo unspecified) too. inactive

Please give the result for COc1cc(OC)cc(C(=O)Nc2cccc(C#Cc3cccc4[nH]nc(N)c34)c2)c1 too. inactive

Please give the result for N#Cc1c(Nc2ccccc2)nn2c(-c3ccc([N+](=O)[O-])cc3)ccnc12 too. inactive

Please give the result for COc1cccc(C(=O)Nc2cccc(C#Cc3cccc4[nH]nc(N)c34)c2)c1 too. inactive

Please give the result for C=C(C)[C@@H]1CC[C@]2(COC)CC[C@]3(C)[C@H](CC[C@@H]4[C@@]5(C)CCCNC(C)(C)[C@@H]5CC[C@]43C)[C@@H]12 too. inactive

Please give the result for O=C(NNc1nc2cc(F)c(F)cc2n2c(CN3CC4CNCC4C3)ccc12)c1cnccn1 (stereo unspecified) too. inactive

Please give the result for COc1cc(-c2nn(C(C)(C)C)cc2-c2ccnc(NCCCNS(=O)(=O)c3ccc(F)cc3)n2)ccc1Cl too. inactive

Please give the result for O=S(=O)(Oc1ccc(-c2nnc(Nc3ccccc3)s2)cc1)C(F)(F)C(F)(F)C(F)(F)C(F)(F)C(F)(F)C(F)(F)F too. inactive

Please give the result for CCN(CC)c1cn(-c2ccc(S(N)(=O)=O)cc2)nn1 too. inactive

Please give the result for C=CC(=O)N1CC=C(c2cc3c(N[C@H](C)c4ccccc4)ncnc3[nH]2)CC1 too. inactive

Please give the result for CC1=CC(=O)C2=C(C)CC(OC(=O)CCc3ccccc3)[C@@H]3[C@H](OC(=O)[C@@H]3C)[C@@H]12 (stereo partly specified) too. inactive

Please give the result for Cc1ccc2c(c1)C(=O)/C(=C/c1cccc(F)c1)S2 too. inactive

Please give the result for O=C1C(c2ccccc2)=C(N2CCc3ccccc32)OC1(Cl)Cl too. inactive

Please give the result for O=C(CNc1nc(-c2cccc([N+](=O)[O-])c2)cs1)Nc1cccc(Cl)c1 too. inactive

Please give the result for CC1(C)CC[C@]2(C(=O)N3CCOCC3)CC[C@]3(C)C(=CC[C@@H]4[C@@]5(C)C/C(=C/c6ccco6)C(=O)C(C)(C)[C@@H]5CC[C@]43C)[C@@H]2C1 too. inactive

Please give the result for COc1cc2nc(Cl)nc(Nc3cccc(C4=Nc5c(N)nc(N)nc5NC(c5ccc6c(c5)OCO6)C4)c3)c2cc1OC (stereo unspecified) too. inactive

Please give the result for CC[C@H](CO)Nc1ccc2ncc(C#Cc3cncc(C(=O)Nc4ccc(CN5CCN(C)CC5)c(C(F)(F)F)c4)c3)n2n1 too. inactive
